Test system: A549/ATCC NSCLC
Assay: NCI-60 one-dose screen, 48 h (100 = growth as untreated, 0 = no growth, -100 = all killed)
Details: 10 µM unless noted
This is part of a sample that, as a whole, favours compounds with a hit. Of some 83,000 tested, about 20% had one in any assay. Calls of active or inactive are those of the source. The calls were made as follows: active = growth percent below 10; inactive = the rest.
quantity: growth

# compound, test-target, growth
measured = [
    ("COc1ccc(C(=O)Cn2c(C(=O)c3ccc(OC)cc3)nc3ccccc32)cc1", "A549/ATCC NSCLC", "41.3% (inactive)"),
    ("O=C(Nc1ccccc1N1CCCC1=O)c1oc2ccc(F)cc2c1-c1cnn(-c2ccccc2)c1", "A549/ATCC NSCLC", "37.5% [50 µM] (inactive)"),
    ("NC1=Nc2cc(OCCCCN3Cc4ccccc4C3)c(OCC3CC3)cc2C12CCCC2", "A549/ATCC NSCLC", "67.5% (inactive)"),
]

Bench note: what growth did `COc1ccc(C(=O)/C=C/c2ccc(Cl)cc2)cc1S(=O)(=O)Nc1c(N)nc(SC)[nH]c1=O` show?
31.4% (inactive)

What about Cn1c2c(c3ccc(Cl)c(Cl)c31)C(C#N)C(C)(C)NC2=O (stereo not given) ?
89.5% (inactive)

What about `COc1ccc(/C=C2\COc3ccc(O)cc3C2=O)cc1` ?
97.8% (inactive)

====

Test system: NCI-H460 lung
Assay: NCI-60 one-dose screen, 48 h (100 = growth as untreated, 0 = no growth, -100 = all killed)
Conditions: 10 µM unless noted
About 83,000 compounds went through this panel and 20% of them were active in at least one assay; those are over-represented in the sample as a whole.
quantity: growth (%)
Write it as a number; the unit % goes unstated.

# compound, test-target, quantity, unit-of-measurement, measured-number
rows = [
    ("Cn1c2c(c3ccc(Cl)c(Cl)c31)C(C#N)C(C)(C)NC2=O (stereo unspecified)", "NCI-H460 lung", "growth", "%", 91),
    ("O=C(CCCCCNC(=O)c1cc(=O)c(O)co1)Nc1ccccc1", "NCI-H460 lung", "growth", "%", 111),
    ("CC1(C)N=C(N)N=C(N)N1c1ccc(CCCCc2ccccc2)c(Cl)c1", "NCI-H460 lung", "growth", "%", 4.96),
    ("CS(=O)(=O)c1ccc(NC(=O)c2ccccc2)nc1", "NCI-H460 lung", "growth", "%", 105),
    ("CCN1C(=O)N(CC)C2C1NN=c1s/c(=C\\c3cnc(C)n3C)c(=O)n12 (stereo unspecified)", "NCI-H460 lung", "growth", "%", 4.44),
    ("O=S(=O)(NCCNc1nccc(-c2c(-c3cccc(O)c3)nc3occn23)n1)c1ccc(Br)cc1", "NCI-H460 lung", "growth", "%", 31.2),
]

Lab note: need growth with NCI-H460 lung for entry `O=S(=O)(Nc1cc(Sc2cccc3cccnc23)c(O)c2ccccc12)c1ccccc1` , please look it up.
3.5

What about `CN(C)CCCNC(=O)c1cncnc1Nc1ccc(OCc2cccc(F)c2)c(Cl)c1` ?
-75.1

What about `COC(=O)CC[C@@H]1O[C@@H](c2ccc(F)cc2)[C@@H](O)[C@H]1O` ?
109

What about CCOC(=O)CC1CSC(Nc2ccccc2)=N1 (stereo unspecified) ?
109

What about `COC(=O)c1cc(Br)ccc1O` ?
109

====

Tested on: SN12C renal
Assay: NCI-60 one-dose screen, 48 h (100 = growth as untreated, 0 = no growth, -100 = all killed)
Conditions: 10 µM unless noted
Compounds without any hit were thinned out: in the full panel of roughly 83,000, 20% have a hit.
quantity: growth (%)
Write it as a number; the unit % goes unstated.

# molecule, growth, %
measured = [
    ("Fc1cccc(-c2ccc3c(c2)C2(CCNCC2)CN3)c1", 94.9),
]

Now, please, on to the next molecule.
Bench note: what growth did `NS(=O)(=O)c1ccc(-c2cc(-c3nnc(SCC(=O)Nc4ccc(C(=O)/C=C/c5ccc(Cl)cc5)cc4)n3-c3ccccc3)c3ccccc3n2)cc1` show?
94.9

====

Tested on: NCI-H226 lung
Assay: NCI-60 one-dose screen, 48 h (100 = growth as untreated, 0 = no growth, -100 = all killed)
Conditions: 10 µM unless noted
About 83,000 compounds went through this panel and 20% of them were active in at least one assay; those are over-represented in the sample as a whole. The source made the active and inactive calls. Rule for the calls: active = growth percent below 10; inactive = the rest.
// reported growth per item

Here is how some compounds turned out for growth.
# compound, growth
records = [
    ("O=C1/C(=C2\\SC(=S)N(C3CC3)C2=O)SC(=S)N1C1CC1", "95.5% (inactive)"),
    ("C/C(=N\\O)c1ccc(NC(=O)CSc2nnc(-c3cc(-c4ccc(S(N)(=O)=O)cc4)nc4ccccc34)n2-c2ccccc2)cc1", "80.4% (inactive)"),
    ("CCOc1cccc(/C=N/NC(=O)c2cccc(Nc3ccnc(C(F)(F)F)c3)c2)c1O", "32.9% (inactive)"),
    ("Cc1c2ccncc2c(C)c2c1c1cc(CO)ccc1n2C", "-49.2% (active)"),
    ("CCc1ccc(CCC(=O)Nc2ncc(Cc3cc(Cl)ccc3Cl)s2)o1", "42.8% (inactive)"),
]

Lab note: need growth with NCI-H226 lung for entry `CN1CCN(c2ccc3nc4c(nc3c2C(F)(F)F)C(=O)c2ncccc2C4=O)CC1` , please look it up.
-78.9% (active)

What about `CN(C)c1ccc(-c2nc(-c3ccccc3)c(-c3ccccc3)[nH]2)cc1` ?
106% (inactive)

What about `NC(=O)c1cnc(Nc2cccc(N)c2)nc1NCCCNC(=O)C1CCC1` ?
69.1% (inactive)

What about `O=C1/C(=C/c2ccccn2)NC(=S)N1c1ccccc1Cl` ?
78.3% (inactive)

What about `O=C1Nc2ccccc2/C1=C\c1c[nH]c2ccc(Br)cc12` ?
34.9% (inactive)

What about `CCOC(=O)C(=Cc1ccc(-c2ccccc2)cc1)C(=O)OCC` ?
46.5% (inactive)

What about `COc1ccc(/C=C(/C(=O)n2cnnn2)c2cc(OC)c(OC)c(OC)c2)cc1` ?
40.7% (inactive)

What about `COc1ccc(-c2nc(/C=C3\C(=O)N(C)c4ccccc43)c3ccccn23)cc1` ?
63.8% (inactive)

What about `CN1CCN(CCCOc2cccc3nc(Nc4ccc(F)c(F)c4)ccc23)CC1` ?
56.2% (inactive)

What about COc1ccc(CCN2C(=O)/C(=C/c3ccc(C4Oc5ccccc5C5CC(c6ccccc6)=NN54)cc3)SC2=S)cc1 (stereo not given) ?
105% (inactive)

====

Test system: K-562 leukemia
Experiment: NCI-60 one-dose screen, 48 h
Conditions: 10 µM unless noted
Description: Cells are grown in 96 well plates and exposed to the test compound for 48 hours. Compounds are tested at a single concentration, which is 10^-5 M for most compounds. The reported endpoint is percent growth (GI% or GIPRCNT), where numbers from 0 - 100% represent growth inhibition, and numbers from -100% - 0 represent cell death. For example, a value of 40 represents 60% growth inhibition. A value of 0 means no net growth occurred over the course of the experiment. […]
This is part of a sample that, as a whole, favours compounds with a hit. Of some 83,000 tested, about 20% had one in any assay. Activity calls are given as the source filed them. Rule for the calls: active = growth percent below 10; inactive = the rest.
# valid calls are active, inactive; nothing else

Example cases with answers are listed next.
# compound, label
rows = [
    ("CCCC(CC)(C(=O)Nc1ccc2nc(C)cc(N)c2c1)C(=O)Nc1ccc2nc(C)cc(N)c2c1", "inactive"),
    ("Fc1cccc(-c2ccc3c(c2)C2(CCNCC2)CN3)c1", "inactive"),
    ("C=C(C)[C@@H]1CC[C@]2(C(=O)N3CCN(C)CC3)CC[C@]3(C)[C@H](CC[C@@H]4[C@@]5(C)CC[C@H](OC(=O)c6ccccc6C(=O)O)C(C)(C)[C@@H]5CC[C@]43C)[C@@H]12", "inactive"),
    ("COc1cccc(Nc2ncnc3cc(NC(=O)CCl)ccc23)c1", "active"),
    ("C#CC#CC#CC#CC#CC#CC#CC#CC[C@@H]1OC[C@@H](COC(=O)O[C@@H](C(=O)O[C@H]2C[C@@]3(O)[C@@H](OC(=O)c4ccccc4)[C@@H]4[C@]5(OC(C)=O)CO[C@@H]5C[C@H](O)[C@@]4(C)C(=O)[C@H](OC(C)=O)C(=C2C)C3(C)C)[C@@H](NC(=O)c2ccccc2)c2ccccc2)O1", "active"),
    ("CC1=C(C(=O)Nc2ccccc2)C(c2ccc3c(c2)OCO3)NC(=S)N1 (configuration not stated)", "inactive"),
]

Moving on to the next compound.
Lab log entry: `COc1ccc(Cn2cc(C(=O)N=Nc3c(O)[nH]c4c(C)cccc34)nn2)cc1` — outcome as called in the assay?
inactive

====

Tested on: T-47D breast
Experiment: NCI-60 one-dose screen, 48 h (100 = growth as untreated, 0 = no growth, -100 = all killed)
Conditions: 10 µM unless noted
This is part of a sample that, as a whole, favours compounds with a hit. Of some 83,000 tested, about 20% had one in any assay.
Rule for this label: Satisfied means growth is less than 20%; Not satisfied means growth is at least 20%.

Example cases with answers are listed next.
# compound, test-target, label
measured = [
    ("Cc1ccc2c(-c3nnc(N)s3)cc(=O)oc2c1C", "T-47D breast", "Not satisfied"),
    ("C#CCOc1cccc(-c2ncnc3cc(NC(=O)C=C)ccc23)c1", "T-47D breast", "Not satisfied"),
    ("CC1=CC(c2ccco2)=C2C(N)=NNC2N1 (centres undefined)", "T-47D breast", "Not satisfied"),
    ("CN1CCN(CCOc2ccc(-c3cnc4c(-c5cccc(F)c5F)cnn4c3)cc2)CC1", "T-47D breast", "Not satisfied"),
    ("COc1cc(OC)c(/C=C/C(=O)c2c(O)cc(OC)c(C3CCN(C)CC3)c2OC)c(OC)c1", "T-47D breast", "Satisfied"),
    ("COc1ccc(/C=C/C(c2cc(OC)c(OC)c(OC)c2)n2cncn2)cc1 (centres undefined)", "T-47D breast", "Not satisfied"),
]

Confirm or reject: growth of `Cc1nc2ccccc2c(/C=C/c2ccccc2)c1C(=O)/C=C/c1ccccc1` lies strictly below 20%
Satisfied

What about `O=C(/C=C(O)/C=C/c1cccc2[nH]ccc12)/C=C/c1cccc2[nH]ccc12` ?
Not satisfied

What about `COc1cccc(NCc2nnc(Nc3ccc(Cl)cc3)c3ccccc23)c1` ?
Satisfied

What about `O=S1(=O)C=C(c2ccccc2)C(c2ccccc2)=C1` ?
Satisfied

What about `CN(CCCNC(=O)CCOCCOCCOCCNC(=O)Cc1ccc2ccc3cccc4ccc1c2c34)CCCNc1cc(-c2ccc3ccccc3c2)nc2ccccc12` ?
Satisfied

What about `CCOC(=O)c1ccccc1-c1c2ccc(=[N+](C)C)cc-2oc2cc(N(C)C)ccc12` ?
Satisfied
